Please go through the items and note down their inhibition in vivo at 90 mg/kg.
# Tested on: human liver cancer cells SMMC7721 xenograft
# testMethodNotes: In-vivo growth of SMMC7721 xenografts in nude mice
# Set-up: species or system BALB/c nude mice
# measurementConditions: Mus musculus, SMMC-7721, ip; S-7721 xenograft; 90 mg/kg intraperitoneal once a day; vs DMSO solvent control; read-out: Curative effect (inhibition rate %) of tumor weight
Answers are plain numbers, in %.

CCNC(=O)CC[C@@H](NC(=O)c1cc2cc(Br)ccc2oc1=O)C(=O)OCC [Compound Id]: 75.7

Below are some compounds; for each one, tell me its inhibition in vivo at 90 mg/kg.
1. CCNC(=O)CCC(NC(=O)c1cc2ccccc2oc1=O)C(=O)OC (stereo not drawn) [Compound Ia]
2. CCNC(=O)CCC(NC(=O)c1cc2ccccc2oc1=O)C(=O)OCC (stereo not drawn) [Compound Ib]
3. CCNC(=O)CCC(NC(=O)c1cc2cc([N+](=O)[O-])ccc2oc1=O)C(=O)OCC (stereo in doubt) [Compound If]
4. CCNC(=O)CC[C@H](N)C(=O)OCC [Compound IIb, theanine ethyl ester]
5. CCNC(=O)CC[C@@H](NC(=O)c1cc2cc(Cl)ccc2oc1=O)C(=O)OCC [Compound Ic]

61.9
66.6
75.7
46.8
69.2

----------
# Test system: highly metastatic Lewis lung cancer cell lines
# testMethodNotes: MTT growth inhibition, LLC cells
# Type: cell-based, mouse
# measurementConditions: Mus musculus, Lewis lung carcinoma, 72 h after treatment, read-out: Drug concentration (IC50) at which 50% cancer cells survived
measuredMetric: IC50 (µM)
Give bare numbers, in µM.

CCNC(=O)CC[C@@H](NC(=O)c1cc2cc(Br)ccc2oc1=O)C(=O)OCC: 116

Can you give me IC50 for all of these, one by one?
1. CCNC(=O)CCC(NC(=O)c1cc2cc([N+](=O)[O-])ccc2oc1=O)C(=O)OCC (stereo in doubt)
2. O=C(O)c1cc2cc(Cl)ccc2oc1=O
3. CCNC(=O)CCC(NC(=O)c1cc2ccccc2oc1=O)C(=O)OCC (stereo not shown)

1: 100; 2: 400; 3: 115

----------
# Test system: human lymphoma cells U937
# testMethodNotes: MTT growth inhibition, U937 cells
# Format: cell-based
# measurementConditions: Homo sapiens, U-937, 72 h after treatment, read-out: Drug concentration (IC50) at which 50% cancer cells survived
Provide the reported pIC50 of each item.
Numbers only, as −log10 of the molar value.

Previously resolved entries follow.
O=C(O)c1cc2cc(Cl)cc(Cl)c2oc1=O: 3.46
O=C(O)c1cc2cc([N+](=O)[O-])ccc2oc1=O: 3.35
O=C(O)c1cc2cc(Br)ccc2oc1=O: 3.30
CCNC(=O)CCC(NC(=O)c1cc2ccccc2oc1=O)C(=O)OC (centres unmarked): 4.25
CCNC(=O)CC[C@@H](NC(=O)c1cc2cc(Br)ccc2oc1=O)C(=O)OCC: 3.91

Hey, can you go through the list below and give me pIC50 for every item?
1. CCNC(=O)CC[C@@H](NC(=O)c1cc2cc(Cl)ccc2oc1=O)C(=O)OCC
2. CCNC(=O)CCC(NC(=O)c1cc2ccccc2oc1=O)C(=O)OCC (centres unmarked)
3. CCNC(=O)CC[C@@H](NC(=O)c1cc2cc(Br)cc(Br)c2oc1=O)C(=O)OCC

1: 4.28; 2: 4.05; 3: 4.24
